# inhibition at 1 µM values compiled below
- Tested system: Glutaminase(Brain) (Mus musculus, UniProt D3Z7P3)
- Sequence (D3Z7P3 55-674): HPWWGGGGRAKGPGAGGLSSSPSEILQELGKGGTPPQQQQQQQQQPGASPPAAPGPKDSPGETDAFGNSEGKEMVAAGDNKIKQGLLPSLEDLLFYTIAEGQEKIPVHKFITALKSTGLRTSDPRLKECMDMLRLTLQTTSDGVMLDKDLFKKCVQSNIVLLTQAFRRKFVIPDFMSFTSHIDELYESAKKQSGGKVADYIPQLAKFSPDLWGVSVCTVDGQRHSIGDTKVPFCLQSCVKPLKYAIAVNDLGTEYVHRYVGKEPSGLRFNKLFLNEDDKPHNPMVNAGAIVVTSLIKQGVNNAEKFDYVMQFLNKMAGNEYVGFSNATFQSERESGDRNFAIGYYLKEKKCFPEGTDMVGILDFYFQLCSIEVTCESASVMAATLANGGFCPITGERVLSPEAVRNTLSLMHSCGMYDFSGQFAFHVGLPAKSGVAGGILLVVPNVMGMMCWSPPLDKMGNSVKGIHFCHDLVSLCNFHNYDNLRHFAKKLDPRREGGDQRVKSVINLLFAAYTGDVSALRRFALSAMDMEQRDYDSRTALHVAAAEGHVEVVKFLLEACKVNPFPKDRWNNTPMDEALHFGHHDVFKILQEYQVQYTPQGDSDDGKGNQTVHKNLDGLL
- Assay summary: Glutaminase enzyme activity using glutaminase enzyme from mice brain/kidney homogenate (Nessler's reagent, ammonia)
- Format: biochemical
- Measurement parameters: 1 μM; mice brain homogenate; read-out: Glutaminase(Brain) activity % inhibition @1 μM

Guide cases for inhibition at 1 µM, answers given:
- O=C(Cc1cccnc1)Nc1ccc(N2CCC(c3nnc(NC(=O)Cc4c(F)ccc(F)c4F)s3)CC2)nn1 [Example-19]: 75 to 100%
- O=C(Cc1ccccn1)Nc1ccc(N2CCCC(c3nnc(NC(=O)Cc4cccc(OC(F)(F)F)c4)s3)C2)cn1 (centres unmarked) [Example-7]: < 25%
- N#Cc1cccc(CC(=O)Nc2nnc(C3CCN(c4ccc(NC(=O)Cc5cccc(OC(F)(F)F)c5)nc4)CC3)s2)c1 [Example-5]: 25 to 50%
- O=C(Cc1cccc(OC(F)(F)F)c1)Nc1ccc(N2CCC(c3nnc(NC(=O)Cc4ccc5ncccc5c4)s3)CC2)nn1 [Example-30]: 75 to 100%

[in] Give inhibition at 1 µM for O=C(Cc1cccc(OC(F)(F)F)c1)Nc1ccc(N2CCCC(c3nnc(NC(=O)Cc4cccnc4)s3)C2)cn1 (racemic) [Example 3]
[out] 50 to 75%

[in] Give inhibition at 1 µM for O=C(Cc1cccc(OC(F)(F)F)c1)Nc1ccc(N2CCCC(c3nnc(NC(=O)Cc4ccccc4Cl)s3)C2)nn1 (centres unmarked) [Example-13]
[out] 50 to 75%

[in] Give inhibition at 1 µM for O=C(Cc1cccc(OC(F)(F)F)c1)Nc1ccc(N2CCC(c3nnc(NC(=O)Cc4cccc(N5CCC5)c4)s3)CC2)nn1 [Example-34]
[out] 50 to 75%

[in] Give inhibition at 1 µM for O=C(Cc1cccnc1)Nc1ccc(N2CCC(c3nnc(NC(=O)Cc4cccc(OC(F)(F)F)c4)s3)CC2)nn1 [Example-18]
[out] 75 to 100%

[in] Give inhibition at 1 µM for O=C(Cc1cccc(OC(F)(F)F)c1)Nc1ccc(N2CCC(c3nnc(NC(=O)C(CO)c4ccccc4)s3)CC2)nn1 (centres unmarked) [Example-36]
[out] 50 to 75%

[in] Give inhibition at 1 µM for O=C(Cc1cccc(OC(F)(F)F)c1)Nc1ccc(N2CCCC(c3nnc(NC(=O)Cc4cccnc4)s3)C2)cn1 (single isomer, unassigned) [Example 3B]
[out] < 25%
